- experimentSummary: Pharmacokinetic (PK) study in ICR mice, IV and PO
- settings: ICR, mouse, plasma, po, 5 mg/kg
valueKind: half-life (h)

Worked examples, 4 compounds total:
[
  {
    "compound": "COc1cc2cc(C(=O)CCC(=O)O)sc2cc1OC [MAS-2, reference compound]",
    "half-life [h]": 1.63
  },
  {
    "compound": "COc1cc2sc(C(=O)C[C@H](C)C(=O)O)cc2c2c(F)c(C)oc12",
    "half-life [h]": 1.1
  },
  {
    "compound": "COc1cc2sc(C(=O)CCC(=O)O)cc2c2nc(C)oc12",
    "half-life [h]": 2.64
  },
  {
    "compound": "COc1cc2sc(C(=O)C[C@H](C)C(=O)O)cc2c2cc(F)oc12",
    "half-life [h]": 3.05
  }
]

A = CC[C@@H](CC(=O)c1cc2c(cc(OC)c3ocnc32)s1)C(=O)O
B = COc1cc2sc(C(=O)CCC(=O)O)cc2c2ncoc12
C = COc1cc2sc(C(=O)C[C@H](C)C(=O)O)cc2c2cc(C)oc12
## Task Thanks in advance: please rank these 3 entries by half-life, highest to lowest. Dear reader, please state the labels in the requested order.
## Result A, B, C

Recorded values, source patent US20260242392A1.
